Origin of values: patent US12234233B2

- ASSAY_PROCEDURE: Solubility in test solutions at different pHs and water
- Format: physicochemical
- ASSAY_CONDITIONS: pH 1.0 hydrochloric acid solution, 37° C.
Output met for 24-hour solubility not less than 5000 µg/mL; output not met otherwise.

// inclusive: 24-hour solubility at least 5000 µg/mL? input: CCc1cc2c(N3CCC(C)(OC)CC3)c(C#N)c(=O)[nH]c2cn1 [Crystal form IV]
not met

Please check the record CCc1cc2c(N3CCC(C)(OC)CC3)c(C#N)c(=O)[nH]c2cn1 [Crystal form VII] and state if its 24-hour solubility is at or above 5000 µg/mL.
met

Does CCc1cc2c(N3CCC(C)(OC)CC3)c(C#N)c(=O)[nH]c2cn1 [Crystal form II] have a reported 24-hour solubility of at least 5000 µg/mL?
not met

For this molecule, is measured 24-hour solubility 5000 µg/mL or higher? CCc1cc2c(N3CCC(C)(OC)CC3)c(C#N)c(=O)[nH]c2cn1 [Crystal form V]
not met

Does 24-hour solubility meet or surpass 5000 µg/mL for CCc1cc2c(N3CCC(C)(OC)CC3)c(C#N)c(=O)[nH]c2cn1 [Compound of formula (I)] ?
met

Reported 24-hour solubility reaches at least 5000 µg/mL for CCc1cc2c(N3CCC(C)(OC)CC3)c(C#N)c(=O)[nH]c2cn1 [Crystal form I] ?
met
